FYI, the data here is from ChEMBL document CHEMBL2086288.

Tested on: HCT-116
measurement.description: Growth inhibition of human HCT116 cells at 50 uM after 48 hrs by MTT assay
Assay type: functional
test.parameters: HCT-116, 48 h, read-out: GI
readout.type: inhibition of growth at 50 µM (%)
Write the value in % as a bare number.

Below, each entry is followed by its recorded inhibition of growth at 50 µM result.
> print(dat)
                                   molecule  val
1  Cc1ccc(C2=NC(c3ccccc3)c3c(ccc4ccccc34)O2)cc1 (stereo not given)   38
2  Cc1ccc(C2N=C(c3ccc([N+](=O)[O-])cc3)Oc3ccc4ccccc4c32)cc1 (stereo not given)   21

Q. // lookup inhibition of growth at 50 µM for Fc1ccc(C2=NC(c3ccccc3)c3c(ccc4ccccc34)O2)cc1 (stereo not given)
A. 56

Q. Name the recorded inhibition of growth at 50 µM for c1ccc(C2=NC(c3ccccc3)c3c(ccc4ccccc34)O2)cc1 (stereo not given) .
A. 22

Q. Consider the molecule shown here: Brc1ccc(C2=NC(c3ccccc3)c3c(ccc4ccccc34)O2)cc1 (stereo not given) What is its recorded inhibition of growth at 50 µM?
A. 29

Q. May I ask what inhibition of growth at 50 µM has been recorded for O=[N+]([O-])c1ccc(C2=NC(c3ccccc3)c3c(ccc4ccccc34)O2)cc1 (stereo not given) ?
A. 14

Q. Reported inhibition of growth at 50 µM, molecule Cc1ccc(C2N=C(c3ccc(Cl)cc3)Oc3ccc4ccccc4c32)cc1 (stereo not given) : ____
A. 6

Q. For the molecule shown here, Cc1ccc(C2N=C(c3ccc(F)cc3)Oc3ccc4ccccc4c32)cc1 (stereo not given) , give the reported inhibition of growth at 50 µM.
A. 23

Q. Name the recorded inhibition of growth at 50 µM for Cc1ccc(C2N=C(c3ccc(Br)cc3)Oc3ccc4ccccc4c32)cc1 (stereo not given) .
A. 10

Q. Data request, read-out inhibition of growth at 50 µM, for COc1ccc(C2=NC(c3ccccc3)c3c(ccc4ccccc34)O2)cc1 (stereo not given)
A. 14
